Source: the nanobody polyreactivity screen of Harvey et al. (2022)

# method.description: yeast display, Sf9 membrane polyspecificity reagent, FACS + sequencing; frameworks hold sequencing errors
readout.label: polyreactivity (PSR sort gate)

residue.codes | readout.label | result
QVQLVESGGGLVQAGGSLRLSCAASGRTYGIYAMGWYRQAPGKEREFVAAISWSSGGSTYYADSVKGRFTISRDNAKNTVYFQMISLKPEDTAVYYCNVDTIYNLESDYWGQGTQVTVSS | polyreactivity (PSR sort gate) | low polyreactivity
QVQLVESGGGLVQAGGSLRLSCAASGFTFWLYAMGWYRQATGKEREFVAAISTSGGSTYADSVKGRFTISRDNAKNTVYLQMNSLKPEDTAVYYCNAGYLLYYDYHLFYWGQGTQVTVSS | polyreactivity (PSR sort gate) | low polyreactivity

----------
# method.description: yeast display, Sf9 membrane polyspecificity reagent, FACS + sequencing; frameworks hold sequencing errors
readout.label: polyreactivity (PSR sort gate)

residue.codes | readout.label | result
QVQLVESGGGLVQAGGSLRLSCAASGRIFIQYGMVWYRQAPGKERELVAAIRSGDSTNYADSVKGRFTISRDNAKNTVYLQMNSLKPEDTSVYYCARDRPGDYAGYDYWGQGTQVTVSS | polyreactivity (PSR sort gate) | low polyreactivity
QVQLVESGGGLVQAGGSLRLSCAASGSTFWKYVMGWYRQAPGKVRELVAAITSRGGSTYADSVKGRFTISRDNAKNTVYLQMNSLKPEDTAVYYCAATKFWYYGYDYWGQGTQVTVSS | polyreactivity (PSR sort gate) | low polyreactivity

----------
# method.description: yeast display, Sf9 membrane polyspecificity reagent, FACS + sequencing; frameworks hold sequencing errors
readout.label: polyreactivity (PSR sort gate)

residue.codes | readout.label | result
QVQLVESGGGLVQAGGSLRLSCAASGSIFSYYAMGWYRQAPGKERELVAAITRSGSKNYADSVKGRFTISRDNAKNTVYLQMNSLKPEDTAVYYCAAETDESDWYYYWGQGTQVTVSS | polyreactivity (PSR sort gate) | high polyreactivity
QVQLVESGGGLVQAGGSLRLSSAASGRTFWNNAMGWYRQAPGKERELVAAITSGGRTNYADSVKGRFTISRDNAKNTVYLQMNSLKPEDTAVYYCAAVGYVIYDYWVQGTQVTVSS | polyreactivity (PSR sort gate) | low polyreactivity
QVQLVESGGGLVQAGGSLRLSCAASGLTFGDYAMGWYRQAPGKERELVAVISRSGGSTYYADSVKGRFTISRDNAKNTVYLQMNSLKTEDTAVYYCDKDAGLQKYHHDYWGQGTQVTVSS | polyreactivity (PSR sort gate) | low polyreactivity
QVQLVESGGGLVQAGGSLRLSCAASGSIFFRNVMGWYRQAPGKERELVAAISRSGSTNYADSVKGRFTISRDNAKNTVYLQMNSLKPEDTAVYYCAAQQWRRGRYRDTAGPMFAYDYWGQGTQVTVSS | polyreactivity (PSR sort gate) | low polyreactivity
QVQLVESGGGLVQAGGSLRLSCAASGSIYYTYAMGWYRPAPGKERELVAAISKRGGSTYYADSVKGRFTISRDNAKNSVYLQMNSLKPEDTAVYYCAARYNAPRGGGSDDYWGQGTQVTVSS | polyreactivity (PSR sort gate) | high polyreactivity
QVQLVESGGGLVQAGGSLRLSCPASGSTFAIYGMGWYRQAPGKERELVAGITRGGSTNYADSVKGRFTISRDNAKNTVYLQMNILKPEDTAVYYCNSPLGVRRFKSKGRSHYEYWGQGTQVSVSS | polyreactivity (PSR sort gate) | high polyreactivity
QVQLVESGGGLVQAGGSLRLSCAASGSIFRVNTLGWYRQAPGKERELVATISSGARTNYADSVKGRFTISRDNAKNTVDLQLNSLKPEDTAVYYCAADRSWGYWGRSRYDYWGQGTQVTVSS | polyreactivity (PSR sort gate) | high polyreactivity
QVQLVESGGGLVQAGGSLRLSCAASGSIYGVKAMRWYRQAPGKERELVADITKSTGDTYADSVKGRFTISRDNAKNTVYLQMNSLKPEDTAGYYCNARVTVKQKRLYLYDFWGQGTQVTVSS | polyreactivity (PSR sort gate) | low polyreactivity
QVQLVASGGGLVQAGGSLRLSCAASGSTFGSNAMGWYRQAPGKERELVAPINSGDSTSYADSVKGRFTISRDNAKNTVYLQMNSLKPEDTAVYYCATRYYTFVWRHDYWGQGTQVTVSS | polyreactivity (PSR sort gate) | low polyreactivity
QVQLVESGGGLVQAGGSLRLSCAASGFIFDIYAMGWYRQAPGKERELVASITWDDGSTYYADSVKGRFTISRDNAKNTVYLQMNRLKPVDTAVYYCAADFEAGGYSLDYWGQGTQVTVSS | polyreactivity (PSR sort gate) | low polyreactivity
QVQLVESGGGLVQAGGSLRLSCAASGGTFTHNAMGWYRQAPGKDWELVAAISRSGGSTSYADSVKGRFTISRYNAKNTVYLQMNSLKPEDTAVYYCADRISRQRSYSRDYWGQGNQVTVSS | polyreactivity (PSR sort gate) | high polyreactivity
